Recorded values, source ChEMBL document CHEMBL6087476.

System: RAW264.7
Test: Cytotoxicity against mouse RAW264.7 cells assessed as cell death measured after 18 to 24 hrs by MTT assay
Format: functional
Conditions: time 18-24 hrs
VALUE_KIND: IC10 (µM)

[
  {
    "STRUCTURE_AS_SMILES": "CCCCCCCCCCCC(=O)NCCCC[C@H](N)C(=O)NCC(=O)NCC(=O)NCC(=O)N[C@H](CCCNC(=N)N)C(=O)N[C@@H](CCCNC(=N)N)C(=O)N[C@@H](CCCNC(=N)N)C(=O)N1CCC[C@H]1C(=O)N[C@@H](CS)C(=O)O",
    "UNIT_LABEL": "µM",
    "REPORTED_VALUE": 64
  },
  {
    "STRUCTURE_AS_SMILES": "CCCCCCCCCCCC(=O)NCCCC[C@H](NC(=O)[C@@H](N)CS)C(=O)NCC(=O)NCC(=O)NCC(=O)N[C@H](CCCNC(=N)N)C(=O)N[C@@H](CCCNC(=N)N)C(=O)N[C@@H](CCCNC(=N)N)C(=O)N1CCC[C@H]1C(=O)O",
    "UNIT_LABEL": "µM",
    "REPORTED_VALUE": 128
  },
  {
    "STRUCTURE_AS_SMILES": "CCCCCCCCCC(=O)NCCCC[C@H](NC(=O)[C@@H](N)CSSC[C@H](N)C(=O)N[C@@H](CCCCNC(=O)CCCCCCCCC)C(=O)NCC(=O)NCC(=O)NCC(=O)N[C@H](CCCNC(=N)N)C(=O)N[C@@H](CCCNC(=N)N)C(=O)N[C@@H](CCCNC(=N)N)C(=O)N1CCC[C@H]1C(=O)O)C(=O)NCC(=O)NCC(=O)NCC(=O)N[C@H](CCCNC(=N)N)C(=O)N[C@@H](CCCNC(=N)N)C(=O)N[C@@H](CCCNC(=N)N)C(=O)N1CCC[C@H]1C(=O)O",
    "UNIT_LABEL": "µM",
    "REPORTED_VALUE": 256
  },
  {
    "STRUCTURE_AS_SMILES": "CCCCCCCC(=O)NCCCC[C@H](NC(=O)[C@@H](N)CSSC[C@H](N)C(=O)N[C@@H](CCCCNC(=O)CCCCCCC)C(=O)NCC(=O)NCC(=O)NCC(=O)N[C@H](CCCNC(=N)N)C(=O)N[C@@H](CCCNC(=N)N)C(=O)N[C@@H](CCCNC(=N)N)C(=O)N1CCC[C@H]1C(=O)O)C(=O)NCC(=O)NCC(=O)NCC(=O)N[C@H](CCCNC(=N)N)C(=O)N[C@@H](CCCNC(=N)N)C(=O)N[C@@H](CCCNC(=N)N)C(=O)N1CCC[C@H]1C(=O)O",
    "UNIT_LABEL": "µM",
    "REPORTED_VALUE": 256
  },
  {
    "STRUCTURE_AS_SMILES": "CCCCCCCC(=O)NCCCC[C@H](N)C(=O)NCC(=O)NCC(=O)NCC(=O)N[C@H](CCCNC(=N)N)C(=O)N[C@@H](CCCNC(=N)N)C(=O)N[C@@H](CCCNC(=N)N)C(=O)N1CCC[C@H]1C(=O)N[C@@H](CSSC[C@H](NC(=O)[C@@H]1CCCN1C(=O)[C@H](CCCNC(=N)N)NC(=O)[C@H](CCCNC(=N)N)NC(=O)[C@@H](CCCNC(=N)N)NC(=O)CNC(=O)CNC(=O)CNC(=O)[C@@H](N)CCCCNC(=O)CCCCCCC)C(=O)O)C(=O)O",
    "UNIT_LABEL": "µM",
    "REPORTED_VALUE": 256
  },
  {
    "STRUCTURE_AS_SMILES": "CCCCCCCCCCCC(=O)NCCCC[C@H](N)C(=O)NCC(=O)NCC(=O)NCC(=O)N[C@H](CCCNC(=N)N)C(=O)N[C@@H](CCCNC(=N)N)C(=O)N[C@@H](CCCNC(=N)N)C(=O)N1CCC[C@H]1C(=O)N[C@@H](CSSC[C@H](NC(=O)[C@@H]1CCCN1C(=O)[C@H](CCCNC(=N)N)NC(=O)[C@H](CCCNC(=N)N)NC(=O)[C@@H](CCCNC(=N)N)NC(=O)CNC(=O)CNC(=O)CNC(=O)[C@@H](N)CCCCNC(=O)CCCCCCCCCCC)C(=O)O)C(=O)O",
    "UNIT_LABEL": "µM",
    "REPORTED_VALUE": 64
  },
  {
    "STRUCTURE_AS_SMILES": "CCCCCCCCCC(=O)NCCCC[C@H](N)C(=O)NCC(=O)NCC(=O)NCC(=O)N[C@H](CCCNC(=N)N)C(=O)N[C@@H](CCCNC(=N)N)C(=O)N[C@@H](CCCNC(=N)N)C(=O)N1CCC[C@H]1C(=O)N[C@@H](CSSC[C@H](NC(=O)[C@@H]1CCCN1C(=O)[C@H](CCCNC(=N)N)NC(=O)[C@H](CCCNC(=N)N)NC(=O)[C@@H](CCCNC(=N)N)NC(=O)CNC(=O)CNC(=O)CNC(=O)[C@@H](N)CCCCNC(=O)CCCCCCCCC)C(=O)O)C(=O)O",
    "UNIT_LABEL": "µM",
    "REPORTED_VALUE": 256
  },
  {
    "STRUCTURE_AS_SMILES": "CCCCCCCCCC(=O)NCCCC[C@H](NC(=O)[C@@H](N)CS)C(=O)NCC(=O)NCC(=O)NCC(=O)N[C@H](CCCNC(=N)N)C(=O)N[C@@H](CCCNC(=N)N)C(=O)N[C@@H](CCCNC(=N)N)C(=O)N1CCC[C@H]1C(=O)O",
    "UNIT_LABEL": "µM",
    "REPORTED_VALUE": 256
  }
]
